Source listed as ChEMBL document CHEMBL5584208.

- method: AUC (0 to t) in mouse at 10 mg/kg, po
- Type: ADME, organism-based
- measurement_context: in vivo
property_label: AUC(0-t) (ng·h/mL)

compound	property_label	units_label	observed_value
CCN(c1cc(-c2ccc3c(c2)CCC3N2CCOCC2)cc(C(=O)NCc2c(C)cc(C)[nH]c2=O)c1C)C1CCOCC1 (stereo unspecified)	AUC(0-t)	ng·h/mL	2960
CCN(c1cc(-c2ccc3c(c2)NC(=O)C32CCOCC2)cc(C(=O)NCc2c(C)cc(C)[nH]c2=O)c1C)C1CCOCC1	AUC(0-t)	ng·h/mL	122
CCN(c1cc(-c2ccc3c(c2)N(C)CC32CCOCC2)cc(C(=O)NCc2c(C)cc(C)[nH]c2=O)c1C)C1CCOCC1	AUC(0-t)	ng·h/mL	566
CCN1C(=O)C2(CCOCC2)c2ccc(-c3cc(C(=O)NCc4c(C)cc(C)[nH]c4=O)c(C)c(N(CC)C4CCOCC4)c3)cc21	AUC(0-t)	ng·h/mL	1350
CCN(c1cc(-c2ccc3c(c2)NC(=O)C32CCN(C)CC2)cc(C(=O)NCc2c(C)cc(C)[nH]c2=O)c1C)C1CCOCC1	AUC(0-t)	ng·h/mL	3.4
CCN(c1cc(-c2ccc(CN3CCOCC3)cc2)cc(C(=O)NCc2c(C)cc(C)[nH]c2=O)c1C)C1CCOCC1 [TAZEMETOSTAT]	AUC(0-t)	ng·h/mL	4340
